- targetSystem: T1, VOP 32B-7 (VZ+434b, mVZ+426) (synthetic)
- T1 chain: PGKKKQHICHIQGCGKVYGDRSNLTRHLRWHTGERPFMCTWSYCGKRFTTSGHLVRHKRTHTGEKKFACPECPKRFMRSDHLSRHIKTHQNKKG
- methodDescription: EMSA; 170 mM KCl, 1.7 mM MgCl2, Zn
- measurementParameters: tags: MBP fusion (pMal-c2), SP1 backbone
measuredParameter: Kd

Specify measured Kd for VZ+434 / mVZ+426 target (dsDNA) DNA 1: GGGGGTGACC DNA 2: GGTCACCCCC . < 0.02 nM
